B1: POU domain, class 2, transcription factor 2, residues 200 to 269; numbered along this chain, P09086 (parent)
chain: LEELEQFARTFKQRRIKLGFTQGDVGLAMGKLYGNDFSQTTISRFEALNLSFKNMCKLKPLLEKWLNDAE

- Variants of: B1
- method: abundance fitness (aPCA) (normalised: wild type 0, dead -1); higher = more abundant; growth selection in yeast, the domain comes from the species named
- conditions: Homo sapiens
Record form. Attribute: abundance fitness. Fill in for each entry.
Lab note: record the figure alone, no unit after it.

Supply abundance fitness value. Item: `E3Y` -0.127

Name the recorded abundance fitness of the item `D36P` in your answer. -0.122

Give recorded abundance fitness. `N54T` 0.023

Look up and report measured abundance fitness for this entry: `G26L` -0.064

State its abundance fitness for this variant: `F45K` -0.906

Quick one: give measured abundance fitness for `M55T` -0.213

Look up and report measured abundance fitness for this entry: `Q6I` -0.028

Specify abundance fitness for `L4Y` and stop. -0.408

# return recorded abundance fitness for input `L50D` -0.089

Give the measured abundance fitness for `L48A` 0.053

Please look at this variant and report its abundance fitness: `M29V` 0.003

Identify measured abundance fitness corresponding to `G30Q` 0.107
